ASSAYED SYSTEM: UniProt:G5EFF5
Sequence (G5EFF5 516-753): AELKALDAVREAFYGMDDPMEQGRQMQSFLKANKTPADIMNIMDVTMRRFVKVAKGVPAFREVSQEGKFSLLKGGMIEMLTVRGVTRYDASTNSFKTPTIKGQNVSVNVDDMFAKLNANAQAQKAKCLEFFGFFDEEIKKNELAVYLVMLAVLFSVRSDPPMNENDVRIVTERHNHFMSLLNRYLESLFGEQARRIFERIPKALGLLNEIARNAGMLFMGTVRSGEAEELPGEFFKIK
TEST SUMMARY: cell-based
pEC50: −log10 of the molar value.
METRIC NAME: pEC50

compound="CC(CCCC(C)C1CCC2C3=CCC4CC(=O)CCC4(C)C3CCC21C)C(=O)O [Δ7-DA, (25S)-Δ7-dafachronic acid]" value_measured=7.80
